system: eNOS promoter; assay: Activation of eNOS transcription (eNOS promoter-luciferase reporter gene assay); type: cell-based, human; details: Homo sapiens, 18 h, maximum transcription induction ratio (luciferase with compound / solvent alone); 18 h incubation; read-out: TIR (max)
Recorded measurements of maximal fold induction, one per entry

{"columns": ["compound", "maximal fold induction"],
 "data": [
  ["O=C(NC1Cc2ccccc2C1)c1cccc(F)c1F [Compound 302, 2,3-DIFLUORO-N-INDAN-2-YL-BENZAMIDE]", 2.8],
  ["O=C(NC1Cc2ccccc2C1)c1cc(Cl)ccc1F [Compound 330, 5-CHLORO-2-FLUORO-N-INDAN-2-YL-BENZAMIDE]", 2.2],
  ["O=C(NC1Cc2ccccc2C1)c1ccc(Cl)c(Cl)c1 [Compound 314, 3,4-DICHLORO-N-INDAN-2-YL-BENZAMIDE]", 2.2],
  ["Cc1cc(C(=O)NC2Cc3ccccc3C2)c(C)[nH]1", 2.8],
  ["CC(C)Oc1ccc(C(=O)NC2Cc3ccccc3C2)cc1 [Compound 28, 4-ISOPROPYLOXY-N-INDAN-2-YL-BENZAMIDE]", 4.4],
  ["O=C(NC1Cc2ccccc2C1)c1sc2cccc(Cl)c2c1Cl", 1.5],
  ["CCOc1cc(C(=O)NC2Cc3ccccc3C2)ccc1OC", 2.7],
  ["O=C(NC1Cc2ccccc2C1)c1ccccc1F [Compound 273, 2-FLUORO-N-INDAN-2-YL-BENZAMIDE]", 2.8]
]}
